system: BT-549 breast; test: NCI tumour cell line growth inhibition, 48 h
Recorded GI50 for the following compounds
PROPERTY MEASURED: GI50

>>> recorded_value("CCN1CCN(c2nc(NCCCNc3ccnc4cc(Cl)ccc34)c3ccccc3n2)CC1")
"3450 nM"
>>> recorded_value("CC(C)(C)OC(=O)n1cc(CNC(=S)Nc2ccccc2)c2ccccc21")
"14500 nM"
>>> recorded_value("Brc1cccc(-c2cc(-c3ccc4c(c3)OCCO4)[nH]n2)c1")
"1620 nM"
>>> recorded_value("Nc1n[nH]c2ccc([C@@H]3Nc4ccc5[nH]ncc5c4[C@H]4[C@H]5CCC(C5)[C@H]43)cc12")
"489 nM"
>>> recorded_value("O=C(c1cccs1)c1c(C(F)(F)F)n([O-])c2ccccc2[n+]1=O")
"908 nM"
>>> recorded_value("CC(=O)OCC1OC(O[C@@H]2C[C@H]3C(C)(C)[C@H](OC(C)=O)CC[C@]3(C)[C@H]3CCC4=C([C@@H](C)C[C@@H](O)[C@H](O)C(C)(C)O)CC[C@@]4(C)[C@@]32C)C(O)C(O)C1O (stereo partly drawn)")
"15400 nM"
>>> recorded_value("C=C1C(=O)O[C@H]2[C@H]1CC/C(CNC(=O)c1c[nH]c3ccc(F)cc13)=C\\CC[C@@]1(C)O[C@@H]21")
"1190 nM"
>>> recorded_value("O=C(/C=C/c1ccc(Cl)cc1)c1ccc(Cl)cc1Cl")
"7440 nM"

====

tested on: DMS 273 small cell lung; experiment: NCI tumour cell line growth inhibition, 48 h
PROPERTY MEASURED: TGI

>>> recorded_value("C=CC1=CSNN1")
"> 100 µM"
>>> recorded_value("O=c1[nH]c2ccccc2cc1C(Cl)=C(Cl)Cl")
"> 100 µM"
>>> recorded_value("CCOc1ccc(NC(=O)CC2Sc3ccccc3NC2=O)cc1 (stereo unspecified)")
"> 100 µM"
>>> recorded_value("C1COCCN1.C1COCCN1.N.N.[Cl-].[Pt+2]")
"> 100 µM"
>>> recorded_value("Cc1cc2c(cc1C)[n+](=O)c(C(=O)C/C(=N/NC(=O)c1ccccc1O)C(=O)Nc1ccccc1C(C)C)c(C)n2[O-]")
"> 100 µM"
>>> recorded_value("CCCCCCCCCCCCCCCC(=O)NCC(COP(=O)([O-])OCC[N+](C)(C)C)OCC (stereo unspecified)")
"5 µM"

====

test system: NCI-H23 lung; test: NCI tumour cell line growth inhibition, 48 h
PROPERTY MEASURED: GI50

>>> recorded_value("Cc1cc2nc3c4cc(Cl)ccc4n(CCN(C)C)c3nc2cc1C")
"1650 nM"
>>> recorded_value("COC(=O)C1OC(O[C@H]2CCC3(C)C(CCC4(C)C3CC=C3C5CC(C)(C)CCC5(C(=O)O)CC[C@]34C)C2(C)C)C(O)C(OC2OC(CO)C(O)C(O)C2O)C1O (stereo partly drawn)")
"6460 nM"
>>> recorded_value("N#Cc1c(NC(=O)c2cccc(C(F)(F)F)c2)sc2c1CCC(=O)C2")
"379 nM"
>>> recorded_value("COc1cc(C(=O)NC2c3ccccc3-c3ccccc32)c(N)cc1OCc1ccccc1")
"30600 nM"
>>> recorded_value("O=C1/C(=C/c2ccc(F)cc2)CCOc2ccc([N+](=O)[O-])cc21")
"1950 nM"
>>> recorded_value("COc1ccc(/C=C/C=C(/C#N)C(N)=S)cc1")
"28700 nM"
>>> recorded_value("COc1cc2c3c(cccc3c1)C(=O)N(CCN1CCCC1)C2=O")
"2490 nM"
>>> recorded_value("C#Cc1cnc(=O)n(C2CC(O)C(CO)O2)c1 (stereo not drawn)")
"> 100000 nM"
>>> recorded_value("O=C(NNc1nc2c(F)cccc2n2cccc12)c1cnccn1")
"905 nM"
>>> recorded_value("COc1ccc(-c2nn(-c3cccc(Cl)c3)cc2C2CC(c3ccccc3)=NN2C(C)=O)cc1 (stereo not drawn)")
"10100 nM"
>>> recorded_value("CC1(C)N=C(N)N=C(N)N1c1ccc(CCCCc2ccc(S(=O)(=O)F)cc2)cc1")
"2600 nM"
>>> recorded_value("CC(C)(C)OC(=O)n1cc(CNC(=S)Nc2ccccc2)c2ccccc21")
"10700 nM"
>>> recorded_value("CCc1c2c(nc3cc4c(cc13)OCO4)-c1cc3c(c(=O)n1C2)COC(=O)[C@]3(O)CC")
"2.63 nM"
